- Tested on: Penicillium oxalicum
- experiment: Antimicrobial activity against Penicillium oxalicum at 0.1 ug
- Assay type: functional
- condition description: read-out: IZ
Form field: zone of inhibition at 0.1 µg/disc (one value per entry).
// return numeric value only (unit: mm, not printed)

# example entries with known answers
compound	value reported
CCC[C@@H](O)C1=C(Br)/C(=C/I)OC1=O	4
CCCCC1=C(Br)C(=C(Br)Br)OC1=O	1

Okay, next one:
Recorded zone of inhibition at 0.1 µg/disc of CCC[C@@H](OC(C)=O)C1=C(Br)/C(=C\Br)OC1=O [ACETOXYFIMBROLIDE] , please. 6

----------
Consider the following molecules and their measured IC50 readings.
- Test system: Mycobacterium avium
- experiment: Antimycobacterial activity against Mycobacterium avium at 128 uM
- Format: functional, organism-based
Return type: number; implicit unit µM.

Use the examples below as a reference point.
molecule smiles	IC50 (µM)
CCC[C@@H](OC(C)=O)C1=C(Br)/C(=C/Br)OC1=O	350
CCC[C@@H](O)C1=C(Br)/C(=C/Br)OC1=O	350

For the molecule CCC[C@@H](OC(C)=O)C1=C(Br)[C@@](CI)(OC)OC1=O , what IC50 is on record? 350

----------
- Test system: KB
- experiment: Cytotoxicity against human KB cells
- Assay type: functional
- condition description: read-out: ED50 (the source's name)
attribute measured: EC50 (µg/mL)
Please respond with the number in µg/mL and leave the unit unwritten.

Example results:
molecule	EC50, µg/mL
CCC[C@@H](O)C1=C(Br)/C(=C\Br)OC1=O [HYDROXYFIMBROLIDE]	0.5
CCC[C@@H](O)C1=C(Br)C(=C(Br)Br)OC1=O	0.5
CCC[C@@H](OC(C)=O)C1=C(Br)/C(=C/I)OC1=O	0.1
CCCCC1=C(Br)C(OC)(C(Br)Br)OC1=O (configuration not stated)	7.6
CCC[C@@H](OC(C)=O)C1=C(Br)[C@](OC)(C(Br)Br)OC1=O	6.1

So what's the measured EC50 for this one? CCC[C@@H](O)C1=C(Br)/C(=C/Br)OC1=O 0.4

Likewise for CCC[C@@H](OC(C)=O)C1=C(Br)/C(=C/Br)OC1=O ? 0.8

----------
- Tested on: Bacillus subtilis
- experiment: Antimicrobial activity against Bacillus subtilis at 10 ug
- Format: functional, organism-based
Activity calls are given as the source filed them. The calls are words filed in the database; no cut-off is given here.
I would appreciate it if you answered using one of these outcomes: active, inactive

Answered examples (8):
compound	tested system	assigned class
CCCCC1=C(Br)/C(=C/Br)OC1=O	Bacillus subtilis	active
CCC[C@@H](O)C1=C(Br)/C(=C/I)OC1=O	Bacillus subtilis	active
CCC[C@@H](OC(C)=O)C1=C(Br)[C@](OC)(C(Br)Br)OC1=O	Bacillus subtilis	inactive
CCCCC1=C(Br)C(OC)(C(Br)Br)OC1=O (stereo unspecified)	Bacillus subtilis	inactive
CCC[C@@H](O)C1=C(Br)[C@@](CI)(OC)OC1=O	Bacillus subtilis	active
CCC[C@@H](OC(C)=O)C1=C(Br)[C@@](C)(OC)OC1=O	Bacillus subtilis	inactive
CCC[C@@H](O)C1=C(Br)/C(=C\Br)OC1=O [HYDROXYFIMBROLIDE]	Bacillus subtilis	active
CCCCCCCC/C=C(\Br)C(O)C(Br)Br (stereo unspecified)	Bacillus subtilis	active

// switching to the query compound
Which outcome was entered for the compound CCC[C@@H](O)C1=C(Br)[C@](CI)(OC)OC1=O in this test? active

----------
- experiment: Inhibition of PKC
Measured IC50, listed per entry.

compound	IC50
CCC(CCC(=O)C(Br)=C(Br)Br)OC(C)=O (stereo not drawn)	≥ 200 µM
CCCCC1=C(Br)C(=C(Br)Br)OC1=O	≥ 200 µM

Turning to the following compound.
If you can, please state the reported IC50 value of CCC[C@@H](OC(C)=O)C1=C(Br)/C(=C/Br)OC1=O . 67 µM

----------
- System: KB
- experiment: Cytotoxicity against human KB cells
- Type: functional
- condition description: read-out: ED50 (the source's name)
Parameter: EC50. Scope: all listed entries.
State just the number; it will be interpreted in µg/mL.

Known results for molecules:
molecule smiles	tested system	display unit	EC50
CCC[C@@H](O)C1=C(Br)/C(=C/Cl)OC1=O	KB	µg/mL	0.4
CCC[C@@H](OC(C)=O)C1=C(Br)C(=C(Br)Br)OC1=O	KB	µg/mL	0.3

Any idea what its EC50 is? The molecule is CCC[C@@H](OC(C)=O)C1=C(Br)[C@@](C)(OC)OC1=O 5.4

----------
- Tested on: Bacillus subtilis
- experiment: Antimicrobial activity against Bacillus subtilis at 10 ug
- Assay type: functional, organism-based
The source made the active and inactive calls. The calls are words filed in the database; no cut-off is given here.
Hi there, use one of these labels in your reply, thanks! Y = active, N = inactive

Consider the worked cases shown below.
compound	assigned class
CCC(CCC(=O)C(Br)=C(Br)Br)OC(C)=O (configuration not stated)	Y
CCC[C@@H](OC(C)=O)C1=C(Br)/C(=C/Br)OC1=O	Y
CCC[C@@H](OC(C)=O)C1=C(Br)C(=C(Br)Br)OC1=O	Y
CCCCCCC(=O)C(Br)=C(Br)Br	N
CCC[C@@H](OC(C)=O)C1=C(Br)[C@](C)(OC)OC1=O	Y

Lab log entry: CCC[C@@H](OC(C)=O)C1=C(Br)[C@@](OC)(C(Br)Br)OC1=O — outcome as called in the assay? Y

Check CCC[C@@H](OC(C)=O)C1=C(Br)/C(=C\Br)OC1=O [ACETOXYFIMBROLIDE] too. Y
